Molecular target: S. aureus TrmD (Staphylococcus aureus)
Construct: made in house; host or cells: E. coli BL21
Sequence (Q2FZ43 whole entry): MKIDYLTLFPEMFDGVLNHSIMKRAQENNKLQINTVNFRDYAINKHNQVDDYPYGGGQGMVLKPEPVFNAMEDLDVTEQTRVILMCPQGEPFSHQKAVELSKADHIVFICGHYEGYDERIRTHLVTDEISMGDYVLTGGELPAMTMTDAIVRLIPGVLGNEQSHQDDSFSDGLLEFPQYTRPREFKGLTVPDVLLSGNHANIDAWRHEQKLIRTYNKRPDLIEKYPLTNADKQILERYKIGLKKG
Experiment: Fluorescence polarization (FP) assay, tracer 4, S. aureus TrmD
Format: binding
Settings: enzyme concentration varied, read-out: KD of fluorescent tracer, S. aureus TrmD (FP)
QUANTITY_NAME: pKd
Bear in mind: pKd is minus log10 of a mol/L concentration; give just that figure.

The compound CN1/C(=C/C=C/C=C/C2=[N+](CCCCCC(=O)NCCCn3cc(CNC(=O)c4csc5nc[nH]c(=O)c45)nn3)c3ccccc3C2(C)C)C(C)(C)c2ccccc21 [Compound 3, reference compound] , when measured on S. aureus TrmD (Staphylococcus aureus), yielded pKd of 4.63

FYI, the data here is from paper PMC12751012.
